Assay: compounds binding Alexa647 anti-His antibody – biochemical, small-molecule microarray, 635 nm fluorescence, artefact control for SMM control protein annotation, primary screen (AID 1128);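 note: score merges feature fluorescence with signal-to-noise for each printed compound spot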
Conditions: higher = more signal
Would you mind labelling by composite z-score? At or over 0.2 is met, under is not met.

Past entries and their recorded results:
Compound	Discrete label
[N-]=[N+]=Nc1ccccc1[C@@H]1OC(c2ccc(OCCCO)cc2)=N[C@]1(CCS(=O)(=O)c1ccccc1)C(=O)O	met
O=C1OCCC=C[C@H]2OC34C=CCN(c5ccc6ccccc6c5)C(=O)[C@H]3N(CCCCCCO)C(=O)[C@@H]4C12 (stereo partly specified)	not met
CN1C(=O)C2C=CC(C(O)c3ccc(Br)cc3)N(Nc3ccccc3)C2C1=O (stereo unspecified)	not met

Please tell me: is the compound `[N-]=[N+]=NCc1ccccc1C[C@@]1(C(=O)NCc2ccccc2)N=C(c2ccc(OCCCO)cc2)O[C@@H]1c1ccccc1CN=[N+]=[N-]` at or over 0.2 in terms of composite z-score?
met

Hi, just wondering whether `CC(C)C(=C=CC[C@H](O)c1ccccc1OCCO)CCO` shows composite z-score of 0.2 or higher.
met

Please tell me: is the compound `COc1c(C)cc(-c2cc3c(c(-c4ccccc4)n2)[Si](C(C)C)(C(C)C)O[C@H]3c2ccccc2)cc1C` at or over 0.2 in terms of composite z-score?
met

Threshold query (composite z-score >= 0.2) on `CC(C)[Si]1(C(C)C)O[C@@H](c2ccccc2)c2cc(-c3ccc(-c4ccc(Cl)c(Cl)c4)o3)nc(CCc3ccccc3)c21`
not met

composite z-score >= 0.2 for CC1CC/C=C\[C@H]2OC34C=CCN(Cn5nnc6ccccc65)C(=O)[C@H]3N(CCCO)C(=O)[C@@H]4C2C(=O)O1 (stereo partly specified) ?
met

Kindly determine if composite z-score recorded for `[N-]=[N+]=Nc1ccccc1C[C@]1(C(=O)N2CCCCC2)N=C(c2ccc(OCCCO)cc2)O[C@H]1c1ccccc1N=[N+]=[N-]` is above or exactly 0.2.
met

Hi, just wondering whether `CC(=O)NCCCC[C@@H]1NC(=O)[C@@H]2C[C@H](C(=O)NCCCCCC[N+](C)(C)C)[C@H](c3cccc(OCCO)c3)N2C1=O` shows composite z-score of 0.2 or higher.
met

Given O=C1OCCC/C=C\[C@H]2OC34C=CCN(CCN5CCOCC5)C(=O)[C@H]3N(CCO)C(=O)[C@@H]4C12 (stereo partly specified) , state whether its composite z-score is at least 0.2.
met

* * *

Experiment: growth of efflux-deficient E. coli DRC39 – strain DRC39, OD650, 48 h, E. coli filamentation inducers, primary screen (AID 1179);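 note: screen aims at cell division blockers that make cells filament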
Settings: E. coli DRC39 delta-acrAB growth, higher = more signal, called active from +8 up or from −8 down
Reported property: z-score
A bare number is all that is needed in reply.

Molecule	Reported property	Meas value
O=C(NCc1ccccc1)[C@@H]1c2ccccc2C(=O)N(C2CCCCC2)[C@H]1c1ccc(CO)cc1	z-score	0.268
CN(C)CCCC[C@@H]1NC(=O)[C@H]2C[C@@H](C(=O)NCCCCCNC(=O)CS)[C@@H](c3ccc(O)cc3)N2C1=O	z-score	0.326
O=C1O[C@H](c2ccccc2)[C@H](c2ccccc2)N2[C@H]1[C@@H](C(=O)NC[C@H](O)c1ccccc1)[C@]1(C(=O)Nc3ccc(C#CC4(O)CCCCCC4)cc31)[C@H]2c1ccccc1OCCO	z-score	0.283
C=C(/C(=C/C[C@@H](OC(C)=O)c1ccc(CO)o1)c1cnc2ccccc2c1)C(C)C	z-score	-0.0766
COc1cc(NN2C(C(O)c3ccccc3)C=CC3C(=O)N(c4ccccc4)C(=O)C32)cc(OC)c1OC (stereo not drawn)	z-score	0.8
COC(=O)[C@@]1(Cc2ccc(F)cc2)[C@H]2c3cc(C(=O)N4CCCC4)n(Cc4ccc(Cl)c(C(F)(F)F)c4)c3C[C@H]2CN1C(=O)c1ccccc1	z-score	0.272

Form field: reported z-score of O=C1OCCC=C[C@H]2OC34C=CCN(CCN5CCOCC5)C(=O)[C@H]3N(CCO)C(=O)[C@@H]4C12 (stereo partly drawn)
-0.99

Given `C=CCN1Cc2ccccc2C[C@@]2(COC(c3ccc(OCCCO)cc3)=N2)C1=O` , state its recorded z-score.
1.14

# input molecule: `C[n+]1ccc2ccc(O)cc2c1` ; wanted: its z-score
-0.0896

Recorded z-score of C[C@H]1C2[C@H](Cc3ccccc3)NC(=O)[C@]23C(=O)N[C@H](Cc2ccccc2)C(=O)N[C@H](Cc2ccccc2)C(=O)NC/C=C/CCC/C=C/C3[C@@H]2O[C@]12C (stereo partly drawn) , please.
-0.934

Bench note: what z-score did CC(C)C(O)C1C=CC2C(=O)N(C)C(=O)C2N1N1CCCCC1 (stereo not drawn) show?
-0.837

I have this molecule here, `C=CCOC(=O)[C@H]1[C@@H]2C(=O)O[C@@H](c3ccccc3)[C@@H](c3ccccc3)N2[C@@H](c2ccc(OCCOC(=O)[C@H]3C[C@H]4C(=O)N[C@@H](CCCC[N+](C)(C)C)C(=O)N4[C@H]3c3ccc(O)cc3)cc2)[C@]12C(=O)Nc1ccccc12` , and I need its recorded z-score.
0.0612

Any idea what z-score was measured for `[N-]=[N+]=NCc1ccccc1C[C@]1(C(=O)N2CCOCC2)N=C(c2ccc(OCCCO)cc2)O[C@H]1c1ccccc1` ?
0.694
